FYI, the data here is from ChEMBL document CHEMBL1138305.

viability at 150 µM reference
- Tested on: HT-29
- protocol_notes: Cell survival of human HT29 cells at 150 uM after 2 hrs
- Assay type: functional
- details: HT-29, 2 h, read-out: Survival
outcome_measure: viability at 150 µM

1) Cc1ccc(Cn2cc(/C=C3/C(O)C4CCN3CC4)c3cc(Br)ccc32)cc1 (stereo unspecified)	> 70%
2) O=C1/C(=C/c2cn(Cc3ccccc3Br)c3ccc(Br)cc23)N2CCC1CC2	> 70%
3) Cc1ccc(Cn2cc(/C=C3/C(=O)C4CCN3CC4)c3ccccc32)cc1	> 70%
4) OC1/C(=C/c2cn(Cc3ccccc3)c3ccc(Br)cc23)N2CCC1CC2 (stereo unspecified)	> 70%
5) O=C1/C(=C/c2cn(Cc3ccc(Cl)cc3)c3ccc(Br)cc23)N2CCC1CC2	> 70%
6) O=C1/C(=C/c2cn(Cc3ccc(F)cc3)c3ccccc23)N2CCC1CC2	> 70%
7) OC1/C(=C/c2cn(Cc3ccc(F)cc3)c3ccccc23)N2CCC1CC2 (stereo unspecified)	< 70%
8) Cc1ccc2c(c1)c(/C=C1/C(=O)C3CCN1CC3)cn2Cc1ccccc1	> 70%
9) O=C1/C(=C/c2cn(Cc3ccc(F)cc3)c3ccc(Br)cc23)N2CCC1CC2	> 70%
10) Cc1ccc(Cn2cc(/C=C3/C(=O)C4CCN3CC4)c3cc(C)ccc32)cc1	> 70%
11) OC1/C(=C/c2cn(Cc3ccc(Cl)cc3)c3ccccc23)N2CCC1CC2 (stereo unspecified)	< 70%
12) Cc1ccc2c(c1)c(/C=C1/C(O)C3CCN1CC3)cn2Cc1ccccc1 (stereo unspecified)	> 70%
13) Cc1ccc(Cn2cc(/C=C3/C(O)C4CCN3CC4)c3ccccc32)cc1 (stereo unspecified)	< 70%
14) O=C1/C(=C/c2cn(Cc3ccccc3)c3ccc(Br)cc23)N2CCC1CC2	> 70%
15) OC1/C(=C/c2cn(Cc3ccc(Cl)cc3)c3ccc(Br)cc23)N2CCC1CC2 (stereo unspecified)	> 70%
16) OC1/C(=C/c2cn(Cc3ccc(F)cc3)c3ccc(Br)cc23)N2CCC1CC2 (stereo unspecified)	> 70%
17) COc1ccc(Cn2cc(/C=C3/C(=O)C4CCN3CC4)c3cc(Br)ccc32)cc1	> 70%
18) COc1ccc2c(c1)c(/C=C1/C(O)C3CCN1CC3)cn2Cc1ccccc1 (stereo unspecified)	< 70%
19) COc1ccc2c(c1)c(/C=C1/C(=O)C3CCN1CC3)cn2Cc1ccccc1	> 70%
20) O=C1/C(=C/c2cn(Cc3ccc(Cl)cc3)c3ccccc23)N2CCC1CC2	> 70%
21) Cc1ccc(Cn2cc(/C=C3/C(=O)C4CCN3CC4)c3cc(Br)ccc32)cc1	> 70%
